For each of the compounds below, state its pIC50.
Bear in mind: pIC50 is minus log10 of a mol/L concentration; give just that figure.

Log: purified wild type MGL (wt-MGLL 6H-11-313) (Homo sapiens, UniProt Q99685), compound Cn1cc(-c2ccc(F)cc2)c2ccc(C(=O)N3CC(N[C@H]4CCN(C(=O)c5ccccc5)C4)C3)cc21 [Cpd 194] , pIC50 = 7.35

Record for O=C(c1cscn1)N1CC[C@H](NC2CN(C(=O)c3cccc4c3ccn4-c3ccc(F)cc3)C2)C1 [Cpd 215] under target or system purified wild type MGL (wt-MGLL 6H-11-313) (Homo sapiens, UniProt Q99685): pIC50 reported as 6.18

Record O=C(c1ccc2c(-c3cccc(F)c3)c[nH]c2c1)N1CC(N[C@H]2CCN(C(=O)c3nccs3)C2)C1 [Cpd 202] has purified wild type MGL (wt-MGLL 6H-11-313) (Homo sapiens, UniProt Q99685) pIC50 equal to 7.96

Lab note: compound O=C(c1ccccc1)N1CC[C@H](NC2CN(C(=O)c3sc4ccccc4c3Br)C2)C1 [Cpd 55] tested on purified wild type MGL (wt-MGLL 6H-11-313) (Homo sapiens, UniProt Q99685); recorded pIC50 was 7.69
